Taken from PubChem BioAssay (NCI).

Tested on: SK-MEL-2 melanoma
procedure.summary: NCI-60 one-dose screen, 48 h (100 = growth as untreated, 0 = no growth, -100 = all killed)
condition.description: 10 µM unless noted
About 83,000 compounds went through this panel and 20% of them were active in at least one assay; those are over-represented in the sample as a whole.
Catalogue of growth values
Give the number; % is assumed, so skip it.

Examples with answers:
>  <compound>
Nc1nc(Nc2ccc([N+](=O)[O-])cc2O)nc(C(Cl)(Cl)Cl)n1

>  <experimental.target>
SK-MEL-2 melanoma

>  <number>
79

$$$$
>  <compound>
O=C(O)COc1ccc(F)cc1

>  <experimental.target>
SK-MEL-2 melanoma

>  <number>
99.6

$$$$
>  <compound>
COc1ccc(C(c2cc(OC)c(OC)c(OC)c2)n2cncn2)cc1O (centres undefined)

>  <experimental.target>
SK-MEL-2 melanoma

>  <number>
55.9

$$$$
>  <compound>
Cc1cc(C(=O)Nc2cc(Nc3ncccc3-c3ncnc4nc[nH]c34)ccc2F)cc(C(C)(C)C#N)c1

>  <experimental.target>
SK-MEL-2 melanoma

>  <number>
8.76

$$$$
>  <compound>
N#Cc1c(-c2ccc(F)cc2)cc(-c2cccc(Cl)c2)[nH]c1=O

>  <experimental.target>
SK-MEL-2 melanoma

>  <number>
78.6

$$$$
>  <compound>
CC(C)(C#N)c1cc(C(=O)Nc2cc(Nc3ncccc3-c3ncnc4nc[nH]c34)ccc2F)cc(C(F)(F)F)c1

>  <experimental.target>
SK-MEL-2 melanoma

>  <number>
5.07

$$$$

Fill blank: measured growth of the compound `CCOC(=O)c1c2c(n3ccc(NC(=O)CCN4CCCC4)cc13)C(=O)c1ncccc1C2=O` is ____. 93.9

Fill blank: measured growth of the compound CC1=C([Se]CC(OC(=O)[C@@H](CO)NC(=O)OC(C)(C)C)C(=O)NCCCCCC(=O)OCc2ccccc2)C(=O)c2ccccc2C1=O (some centres undefined) is ____. -79.9

Fill blank: measured growth of the compound `C=C(C)[C@@H]1CC[C@]2(COC(=O)c3cccnc3)CC[C@]3(C)[C@H](CC[C@@H]4[C@@]5(C)CCCN(C(=O)c6cccnc6)C(C)(C)[C@@H]5CC[C@]43C)[C@@H]12` is ____. 65.3
